Test system: PfSIP2 AP2 domain 1 (GST-tagged)
assayMethodText: gcPBM binding intensity (ln(normalized median fluorescence intensity)); higher = stronger DNA binding
The full ranking holds about 25,000 sequences; the median of “ln(normalized median fluorescence intensity)” is about 7.1, and the highest 2% start at about 10. The sample holds the highest values, similar sequences and a random draw of the others, so the mix is not that of the screen.
quantity: gcPBM binding intensity (ln)

Take a look at these entries with their results.
| sequenceEntry | quantity | value |
| --- | --- | --- |
| TTCATTTTATTTTAAGTGCATATTTTTATTTTTTTG | gcPBM binding intensity (ln) | 8.27 |
| TAAAAGATAAAATATGCATGTGTAATTTTTTTTTTT [TGCATGCA_site955] | gcPBM binding intensity (ln) | 6.79 |
| ACAAAATAAACCACGTGTACAAATTTATAATGTGTA [XGTACX_site1153] | gcPBM binding intensity (ln) | 7.21 |
| TATAACTTTTTTATTACACACCTATGCAATATTATA [CACACA_site6570] | gcPBM binding intensity (ln) | 7 |

We next turn to a different sequence, shown below.
Prompt line: Quick check: gcPBM binding intensity (ln) of AATATTCATATGCAGGTGCATTAATTTTTATTAATT ?
Response line: 10.4

Values compiled from the supplement of paper PMC11417369.
